# target_or_system: PKC-ζ, purified isoform (UniProt Q05513)
# Sequence (Q05513 whole entry, canonical isoform): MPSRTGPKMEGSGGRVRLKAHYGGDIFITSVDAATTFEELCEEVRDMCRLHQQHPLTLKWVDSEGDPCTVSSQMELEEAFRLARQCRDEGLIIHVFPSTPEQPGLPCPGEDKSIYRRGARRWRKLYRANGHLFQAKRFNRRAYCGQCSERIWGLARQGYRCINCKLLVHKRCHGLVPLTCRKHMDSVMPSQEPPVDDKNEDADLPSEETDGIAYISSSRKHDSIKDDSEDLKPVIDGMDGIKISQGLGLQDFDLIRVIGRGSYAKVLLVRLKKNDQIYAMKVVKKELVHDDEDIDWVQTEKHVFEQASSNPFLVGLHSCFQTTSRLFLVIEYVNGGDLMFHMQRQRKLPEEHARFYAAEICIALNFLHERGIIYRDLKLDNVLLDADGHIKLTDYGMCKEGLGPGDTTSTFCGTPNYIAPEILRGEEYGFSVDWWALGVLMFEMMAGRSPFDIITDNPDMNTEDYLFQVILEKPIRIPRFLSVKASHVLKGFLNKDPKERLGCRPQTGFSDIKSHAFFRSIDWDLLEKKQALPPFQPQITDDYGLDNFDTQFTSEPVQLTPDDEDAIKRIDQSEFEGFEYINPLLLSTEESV
# procedure_text: competition ELISA on coated purified PKC-ζ vs anti-PKC ζ antibody; PRE 100 µM
Consider the following binders; for each one, report its relative binding capacity.
Numbers only, in %.

Worked examples follow.
> print(dat)
                        binder  reported
1   Ac-ISIGILQNADK-NH2 [PRE 7]         0
2  Ac-ISIGILNQADK-NH2 [PRE 10]         0
3      Ac-KDAQNLI-NH2 [PRE 12]      8.77
4   Ac-KDANQLIGISI-NH2 [PRE 6]         0

Data request: // Input: Ac-RDAQNLI-NH2 [PRE 13] . Output its relative binding capacity only.
Data returned: 0
